The values you see were collected from ChEMBL document CHEMBL4665624.

Give measured inhibition of growth at 10 µM for each item. Keep answers brief.
- Test system: UACC-62
- test-name: Antitumor activity against human UACC-62 cells assessed as cell growth inhibition at 10 uM incubated for 48 hrs by sulforhodamine B assay
- Format: functional
- test-context: read-out: GI
Expressed in %, but write only the number.

Entry c1cc2ccc3ccc(-c4nc5c6ccccc6c6ccccc6c5[nH]4)c4ccc(c1)c2c34 ; assay system UACC-62; inhibition of growth at 10 µM recorded at 38.4

Entry CCN(CC)c1ccc(-c2nc3c4ccccc4c4ccccc4c3[nH]2)c(O)c1 ; assay system UACC-62; inhibition of growth at 10 µM recorded at 20.1

Entry Oc1ccccc1-c1nc2c3ccccc3c3ccccc3c2o1 ; assay system UACC-62; inhibition of growth at 10 µM recorded at 11.6

Entry CCN(CC)c1ccc(-c2nc3c4ccccc4c4ccccc4c3o2)c(O)c1 ; assay system UACC-62; inhibition of growth at 10 µM recorded at 11.2

Entry Oc1ccccc1-c1nc2c3ccccc3c3ccccc3c2[nH]1 ; assay system UACC-62; inhibition of growth at 10 µM recorded at 10.1

Entry O=C1NC(=O)/C(=C/c2ccc(-c3nc4c5ccccc5c5ccccc5c4[nH]3)cc2)S1 ; assay system UACC-62; inhibition of growth at 10 µM recorded at 30.3

Entry O=c1[nH]cc(F)c(=O)[nH]1 ; assay system UACC-62; inhibition of growth at 10 µM recorded at 39.7

Entry O=Cc1ccc(-c2nc3c([nH]2)-c2cccc4cccc-3c24)cc1 ; assay system UACC-62; inhibition of growth at 10 µM recorded at 19.8

====

- Test system: A498
- test-name: Antitumor activity against human A498 cells assessed as cell growth inhibition at 10 uM incubated for 48 hrs by sulforhodamine B assay
- Assay type: functional
- test-context: read-out: GI
Give measured inhibition of growth at 10 µM for each item. Keep answers brief.

Value of measured inhibition of growth at 10 µM for the entry O=Cc1ccc(-c2nc3c([nH]2)-c2cccc4cccc-3c24)cc1 : < 10%

Value of measured inhibition of growth at 10 µM for the entry O=C1c2ccccc2C(=O)c2c1ccc1[nH]c(-c3ccc(-c4nc5c6ccccc6c6ccccc6c5[nH]4)cc3)nc21 : < 10%

Value of measured inhibition of growth at 10 µM for the entry CCN(CC)c1ccc(-c2nc3c4ccccc4c4ccccc4c3[nH]2)c(O)c1 : < 10%

Value of measured inhibition of growth at 10 µM for the entry c1cc2ccc3ccc(-c4nc5c6ccccc6c6ccccc6c5[nH]4)c4ccc(c1)c2c34 : 36.3%

Value of measured inhibition of growth at 10 µM for the entry O=C1NC(=O)/C(=C/c2ccc(-c3nc4c5ccccc5c5ccccc5c4[nH]3)cc2)S1 : 93%

Value of measured inhibition of growth at 10 µM for the entry Oc1ccccc1-c1nc2c3ccccc3c3ccccc3c2[nH]1 : < 10%

Value of measured inhibition of growth at 10 µM for the entry Oc1ccccc1-c1nc2c3ccccc3c3ccccc3c2o1 : < 10%

Value of measured inhibition of growth at 10 µM for the entry CCN(CC)c1ccc(-c2nc3c4ccccc4c4ccccc4c3o2)c(O)c1 : < 10%

====

- Test system: MCF7
- test-name: Antitumor activity against human MCF7 cells assessed as cell growth inhibition at 10 uM incubated for 48 hrs by sulforhodamine B assay
- Format: functional
- test-context: read-out: GI
So basically: inhibition of growth at 10 µM at 40% or higher? That is 1. Lower than 40%? That is -1.

stdin: Does inhibition of growth at 10 µM meet or surpass 40% for Oc1ccccc1-c1nc2c3ccccc3c3ccccc3c2o1 ?
stdout: -1

stdin: Does inhibition of growth at 10 µM meet or surpass 40% for O=C1NC(=O)/C(=C/c2ccc(-c3nc4c5ccccc5c5ccccc5c4[nH]3)cc2)S1 ?
stdout: 1

stdin: Does inhibition of growth at 10 µM meet or surpass 40% for CCN(CC)c1ccc(-c2nc3c4ccccc4c4ccccc4c3o2)c(O)c1 ?
stdout: 1

stdin: Does inhibition of growth at 10 µM meet or surpass 40% for Oc1ccccc1-c1nc2c3ccccc3c3ccccc3c2[nH]1 ?
stdout: -1

stdin: Does inhibition of growth at 10 µM meet or surpass 40% for O=c1[nH]cc(F)c(=O)[nH]1 ?
stdout: -1

stdin: Does inhibition of growth at 10 µM meet or surpass 40% for c1cc2ccc3ccc(-c4nc5c6ccccc6c6ccccc6c5[nH]4)c4ccc(c1)c2c34 ?
stdout: -1

stdin: Does inhibition of growth at 10 µM meet or surpass 40% for O=Cc1ccc(-c2nc3c([nH]2)-c2cccc4cccc-3c24)cc1 ?
stdout: 1

stdin: Does inhibition of growth at 10 µM meet or surpass 40% for CCN(CC)c1ccc(-c2nc3c4ccccc4c4ccccc4c3[nH]2)c(O)c1 ?
stdout: -1

stdin: Does inhibition of growth at 10 µM meet or surpass 40% for O=C1c2ccccc2C(=O)c2c1ccc1[nH]c(-c3ccc(-c4nc5c6ccccc6c6ccccc6c5[nH]4)cc3)nc21 ?
stdout: -1

====

- Tested on: OVCAR-8
- test-name: Antitumor activity against human OVCAR-8 cells assessed as cell growth inhibition at 10 uM incubated for 48 hrs by sulforhodamine B assay
- Type: functional
- test-context: read-out: GI
experimental-readout: inhibition of growth at 10 µM

Value of measured inhibition of growth at 10 µM for the entry CCN(CC)c1ccc(-c2nc3c4ccccc4c4ccccc4c3o2)c(O)c1 : 15%

Value of measured inhibition of growth at 10 µM for the entry c1cc2ccc3ccc(-c4nc5c6ccccc6c6ccccc6c5[nH]4)c4ccc(c1)c2c34 : < 10%

Value of measured inhibition of growth at 10 µM for the entry Oc1ccccc1-c1nc2c3ccccc3c3ccccc3c2[nH]1 : < 10%

Value of measured inhibition of growth at 10 µM for the entry O=Cc1ccc(-c2nc3c([nH]2)-c2cccc4cccc-3c24)cc1 : < 10%

Value of measured inhibition of growth at 10 µM for the entry O=C1c2ccccc2C(=O)c2c1ccc1[nH]c(-c3ccc(-c4nc5c6ccccc6c6ccccc6c5[nH]4)cc3)nc21 : < 10%

====

- Test system: PC-3
- test-name: Antitumor activity against human PC-3 cells assessed as cell growth inhibition at 10 uM incubated for 48 hrs by sulforhodamine B assay
- Format: functional
- test-context: read-out: GI
So basically: inhibition of growth at 10 µM at 20% or higher? That is y. Lower than 20%? That is n.

stdin: Does inhibition of growth at 10 µM meet or surpass 20% for CCN(CC)c1ccc(-c2nc3c4ccccc4c4ccccc4c3[nH]2)c(O)c1 ?
stdout: n

stdin: Does inhibition of growth at 10 µM meet or surpass 20% for O=Cc1ccc(-c2nc3c([nH]2)-c2cccc4cccc-3c24)cc1 ?
stdout: y

stdin: Does inhibition of growth at 10 µM meet or surpass 20% for Oc1ccccc1-c1nc2c3ccccc3c3ccccc3c2o1 ?
stdout: y

stdin: Does inhibition of growth at 10 µM meet or surpass 20% for O=c1[nH]cc(F)c(=O)[nH]1 [FLUOROURACIL] ?
stdout: y

stdin: Does inhibition of growth at 10 µM meet or surpass 20% for c1cc2ccc3ccc(-c4nc5c6ccccc6c6ccccc6c5[nH]4)c4ccc(c1)c2c34 ?
stdout: y

stdin: Does inhibition of growth at 10 µM meet or surpass 20% for Oc1ccccc1-c1nc2c3ccccc3c3ccccc3c2[nH]1 ?
stdout: n

stdin: Does inhibition of growth at 10 µM meet or surpass 20% for O=C1NC(=O)/C(=C/c2ccc(-c3nc4c5ccccc5c5ccccc5c4[nH]3)cc2)S1 ?
stdout: y

stdin: Does inhibition of growth at 10 µM meet or surpass 20% for O=C1c2ccccc2C(=O)c2c1ccc1[nH]c(-c3ccc(-c4nc5c6ccccc6c6ccccc6c5[nH]4)cc3)nc21 ?
stdout: n

====

- Tested on: HCT-116
- test-name: Antitumor activity against human HCT116 cells assessed as cell growth inhibition at 10 uM incubated for 48 hrs by sulforhodamine B assay
- Assay type: functional
- test-context: read-out: GI
Give measured inhibition of growth at 10 µM for each item. Keep answers brief.
Expressed in %, but write only the number.

Value of measured inhibition of growth at 10 µM for the entry O=C1NC(=O)/C(=C/c2ccc(-c3nc4c5ccccc5c5ccccc5c4[nH]3)cc2)S1 : 65.5

Value of measured inhibition of growth at 10 µM for the entry Oc1ccccc1-c1nc2c3ccccc3c3ccccc3c2o1 : 19.2

Value of measured inhibition of growth at 10 µM for the entry O=Cc1ccc(-c2nc3c([nH]2)-c2cccc4cccc-3c24)cc1 : 19.2

Value of measured inhibition of growth at 10 µM for the entry O=c1[nH]cc(F)c(=O)[nH]1 [FLUOROURACIL] : 17.8

Value of measured inhibition of growth at 10 µM for the entry CCN(CC)c1ccc(-c2nc3c4ccccc4c4ccccc4c3o2)c(O)c1 : 16.6

Value of measured inhibition of growth at 10 µM for the entry c1cc2ccc3ccc(-c4nc5c6ccccc6c6ccccc6c5[nH]4)c4ccc(c1)c2c34 : 16.6

Value of measured inhibition of growth at 10 µM for the entry Oc1ccccc1-c1nc2c3ccccc3c3ccccc3c2[nH]1 : 12.3
